This collection of values is drawn from ChEMBL document CHEMBL1136969.

- System: Plasmodium falciparum
- Assay info: Antiplasmodial activity after 48 hrs against chloroquine-sensitive Plasmodium falciparum D10 infected human erythrocytes by LDH reporter assay
- Type: functional, organism-based
- Assay conditions: D10, 48 h
Class (required): determined from IC90; valid ranges are label 0: < 40 µM; label 1: ≥ 40 µM and < 100 µM; label 2: ≥ 100 µM

// known answers, use as guide
- Molecule: "CCN(CC)CCCC(C)Nc1ccnc2cc(Cl)ccc12 (configuration not stated)"
  Assigned label: "label 0"
- Molecule: "CCCN[C@@H](c1ccc(OC)cc1)[C@H](CO)Oc1ccccc1"
  Assigned label: "label 1"
- Molecule: "Clc1ccc([C@@H]2[C@H](OCc3ccccc3)COCN2c2ccccc2)cc1 (relative stereo)"
  Assigned label: "label 2"
- Molecule: "Brc1ccccc1[C@@H]1[C@H](OCc2ccccc2)COCN1Cc1ccccc1 (relative stereo)"
  Assigned label: "label 0"

Sort into band: Cc1ccc([C@H](NCC(C)C)[C@H](CO)OCc2ccccc2)cc1 (relative stereo)
label 1

Sort into band: OC[C@H](OCc1ccccc1)[C@@H](NCc1ccccc1)c1ccccc1Br (relative stereo)
label 1

Sort into band: CC(C)N[C@@H](c1ccccc1)[C@H](CO)OCc1ccccc1 (relative stereo)
label 2

Sort into band: OC[C@H](Oc1ccccc1)[C@@H](NCc1ccccc1)c1ccccc1F (relative stereo)
label 2

Sort into band: Fc1ccccc1[C@@H]1[C@H](Oc2ccccc2)COCN1Cc1ccccc1 (relative stereo)
label 2

Sort into band: OC[C@H](OCc1ccccc1)[C@H](Nc1ccccc1)c1ccc(Cl)cc1 (relative stereo)
label 0

Sort into band: CCCN[C@@H](c1ccc(C)cc1)[C@H](CO)Oc1ccccc1
label 2
